Assay: protein stability index of a GFP-peptide fusion (GPS, HEK-293T) (PSI 1-6); higher = more stable;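 note: 24-mer peptide tiles fused after GFP, lentivirally expressed, FACS-sorted into six equal bins by GFP/DsRed ratio, decoded by Illumina sequencing, PSI is the read-weighted mean bin number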
Details: treatment: DMSO; c terminus: a fixed tail appended
measurement-kind: protein stability index

# sequence-code, protein stability index
measured = [
    ("QGFRTVLELVINYQQLCIYWTKYY [OAS1]", 2.96),
    ("VLKAHNEYRQKHGVPPLKLCKNLN [GLIPR2]", 2.92),
    ("FLVAEWNEPSINFYKRRGASDLSS [SAT1]", 2.32),
    ("DEHIASEEPAEKEDLLQQMLERRY [CLCN6]", 5.03),
    ("CWDMYRHDIDCQWVDITDVPPGDY [LOXL2]", 2.7),
]

// YLSLLRMYLSPPSIHCLGPIKLEL [VPS39] : protein stability index value = 3.26

---

Test: protein stability index of a GFP-peptide fusion (GPS, HEK-293T) (PSI 1-6); higher = more stable
Conditions: treatment: DMSO; c terminus: a fixed tail appended
measurement-kind: protein stability index
Answer with the value's number alone.

Take a look at these entries with their results.
# sequence-code, numeric-value
data = [
    ("AKVNYVKNNICFMSHHQEELVPKQ [SLC2A12]", 3),
    ("GHMDDGGYSMNFNMSSSRGPLPVK [RBMX]", 4.05),
    ("FFRSLLPNYTMEGERPEEGVAGGL [TCF25]", 3.09),
]

// IEKVSVSTQTKKLSASSPRMLHRS [ZMYND11] : protein stability index value = 3.96

// IDGIQAIYGRSQNPVQPIGPQTPK [MMP1] : protein stability index value = 3.97

// NIMGIENICELAARMLFSAVEWAR [NR2F2] : protein stability index value = 3.04

---

Assay: protein stability index of a GFP-peptide fusion (GPS, HEK-293T) (PSI 1-6); higher = more stable
Conditions: treatment: DMSO; c terminus: a fixed tail appended
Parameter: protein stability index. Scope: all listed entries.
Answer with the value's number alone.

Take a look at these entries with their results.
# sequence-code, protein stability index
measured = [
    ("SKVLSLQDLCCRTIVSCTPVHLVD [RAB40A]", 3.08),
    ("IDQWKNKIWPEIKVPRPDALDNES [RETREG3]", 4.14),
    ("RGKRGYSRGLHAWEISWPLEQRGT [SPSB2]", 2.88),
]

// MVPHNLETTERMKCLYYLYATLDL [PDS5B] : protein stability index value = 2.14

// PRSGEQAEGSPGGPGDSQGRKRRQ [CDKN1A] : protein stability index value = 5.56

// KEVMLFGHGTRKRVPLGRLELLEE [RSAD1] : protein stability index value = 3.6

---

Parameter: protein stability index. Scope: all listed entries.
Assay: protein stability index of a GFP-peptide fusion (GPS, HEK-293T) (PSI 1-6); higher = more stable
Details: treatment: DMSO; c terminus: a fixed tail appended

Take a look at these entries with their results.
# sequence-code, protein stability index
measured = [
    ("SEEGQNGSSPKSKTKWTKEDGHRT [ADD1]", 5.36),
    ("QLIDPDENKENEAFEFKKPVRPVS [CDC25A]", 3.59),
    ("VTLRRGLRSRASRCRPRSLIDYKS [FAM189A2]", 2.12),
    ("AIMRSPQMVSAIVRTMQNTNDVET [CTNNB1]", 3.77),
    ("ERVVREALEKLRSEMEEEKRQAVN [ZMYND11]", 4.59),
]

Now take the following sequence into account.
// DTKGKPTSRTQVYKPPALKKSNSP [ZC2HC1A] : protein stability index value = 4.89
